Taken from PubChem BioAssay (NCATS).

# assaySummary: Quantitative highthroughput screen to assess conditional lethalithy of NOMO1 cells grown in RPMI1640 with dialyzed fetal bovine serum (RPMI+ds) (AID 1963877); note: nearly all actives have a fitted effect of over 30% in size
# measurementParameters: NOMO1 in RPMI+dialyzed FBS viability, ATP luminescence, 48 h; series mostly up to 45.8 µM
Results filed as inconclusive are left out. The source made the active and inactive calls. Calls come from the whole dose curve; as a rule, active = well fitted cell-killing curve with a large enough effect; inconclusive = small, poorly fitted or top-dose-only effect; inactive = flat fitted curve, though single readings scatter. Peptide text beside a SMILES is read from it. * marks the point of attachment. Cbz = O=C(OCc1ccccc1)*
# valid calls are active, inactive; nothing else

Cc1ccc(C)c(OCCCC(C)(C)C(=O)O)c1; inactive

Qu. Test call, this molecule: CC[C@H](CO)Nc1nc(NCc2ccccc2)c2ncn(C(C)C)c2n1
Ans. inactive

Qu. Repeat with Nc1nnc(-c2cccc(Cl)c2Cl)c(N)n1
Ans. inactive

Qu. Repeat with NCc1c[nH]c(=S)n1[C@H]1CCc2c(F)cc(F)cc2C1
Ans. inactive

Qu. Repeat with O=C1CN2Cc3c(ccc(Cl)c3Cl)N=C2N1
Ans. inactive

Qu. Repeat with CN(C)CC=CC(=O)Nc1cc2c(Nc3ccc(F)c(Cl)c3)ncnc2cc1O[C@H]1CCOC1
Ans. active

Qu. Repeat with CCOC(=O)C1=C(O)C(=O)N(Cc2ccccc2)C1
Ans. inactive

Qu. Repeat with O=C(Nc1cc(Cl)cc2c1[nH]c1cnccc12)c1cccnc1
Ans. inactive

Qu. Repeat with Cc1onc(-c2ccccc2Cl)c1C(=O)N[C@@H]1C(=O)N2[C@@H]1SC(C)(C)[C@@H]2C(=O)O
Ans. inactive

Qu. Repeat with CC1(C)O[C@H]2CC(=O)OC[C@]23[C@H]2CC[C@@]4(C)[C@H](c5ccoc5)OC(=O)[C@H]5O[C@]54[C@]2(C)C(=O)C[C@@H]13
Ans. inactive

Qu. Repeat with O=C(O)c1cc(=O)c2c(OCC(O)COc3cccc4oc(C(=O)O)cc(=O)c34)cccc2o1
Ans. inactive

Qu. Repeat with Clc1ccc(Nc2nnc(Cc3ccncc3)c3ccccc23)cc1
Ans. inactive

Qu. Repeat with Cc1cnc(CNC(=O)c2c(=O)c3ccc(N4CCCN(C)CC4)nc3n3c2sc2ccccc23)cn1
Ans. inactive

Qu. Repeat with CCn1c(C(=O)N(C2CC2)C2CC2)cc2c3c(ncn3C)c(Nc3cc(C)n(C)n3)nc21
Ans. inactive

Qu. Repeat with CC(C)C[C@@H](C=O)NC(=O)[C@H](CC(C)C)NC(=O)[C@H](CC(C)C)NC(=O)OCc1ccccc1 (Cbz-Leu-Leu-Leu-aldehyde)
Ans. active

Qu. Repeat with Cc1ccc(C2=Nc3ccc(Cl)cc3OC2)cc1
Ans. inactive

Qu. Repeat with O=NN(CCCl)C(=O)NC1CCCCC1
Ans. inactive

Qu. Repeat with CCC(=O)NCC[C@@H]1CCc2ccc3c(c21)CCO3
Ans. inactive

Qu. Repeat with COc1cc2c(N3CCN(C(=O)Nc4ccc(OC(C)C)cc4)CC3)ncnc2cc1OCCCN1CCCCC1
Ans. active

Qu. Repeat with CC=CCC=CCCC(=O)[C@H]1O[C@@H]1C(N)=O
Ans. inactive

====

# assaySummary: Quantitative highthroughput screen to assess conditional lethalithy of SEM cells grown in RPMI1640 with unreated serum (RPMI+s) (AID 1963883); note: nearly all actives have a fitted effect of over 35% in size
# measurementParameters: SEM B-ALL cells, CellTiter-Glo viability, 48 h; series mostly up to 45.8 µM
Results filed as inconclusive are left out. Calls of active or inactive are those of the source. Calls follow the shape of the dose curve; as a rule, active = well fitted cell-killing curve with a large enough effect; inconclusive = small, poorly fitted or top-dose-only effect, or effect the other way; inactive = no such curve, though single readings can be large or run the other way.
# valid calls are active, inactive; nothing else

Answered examples (8):
CC(C)(C)COc1ccc(-n2cc(C(=O)O)cn2)cc1C#N; inactive
COc1cccc(N(C)C(=S)Oc2ccc3c(c2)CCCC3)n1; inactive
COc1cc(OC)c(C(=O)CCCN2CCCC2)c(OC)c1; inactive
CCCCCN(CCC12CC3CC(CC(C3)C1)C2)C(=O)NCCCc1ccncc1; inactive
CCOC(=O)[C@H](CCc1ccccc1)N[C@@H](C)C(=O)N1CCCC1C(=O)O (stereo partly specified); inactive
CC(C)(O)CC[C@@H](O)[C@](C)(O)[C@H]1CC[C@@]2(O)C3=CC(=O)[C@@H]4C[C@@H](O)[C@@H](O)C[C@]4(C)[C@@H]3CC[C@]12C; inactive
COc1cc([C@@H]2c3cc4c(cc3[C@H](O)[C@H]3COC(=O)[C@@H]23)OCO4)cc(OC)c1OC; active
CCc1c2c(nc3ccc(OC(=O)N4CCC(N5CCCCC5)CC4)cc13)-c1cc3c(c(=O)n1C2)COC(=O)[C@]3(O)CC; active

Qu. Test call, this compound: Cc1cn2cc(C(=O)N(C)CCO)cc(N[C@@H]3CCOc4cccc(C)c43)c2n1
Ans. inactive

Qu. Repeat with CCCCCCCCCCCCCC(=O)N[C@H](CO)[C@H](O)c1ccc([N+](=O)[O-])cc1
Ans. active

Qu. Repeat with COc1nc(C)cnc1NS(=O)(=O)c1cccnc1-c1ccc(-c2nnco2)cc1
Ans. inactive

Qu. Repeat with N#Cc1ccnc(N2C(=O)CC[C@H]2C(=O)N(c2cncc(F)c2)[C@H](C(=O)NC2CC(F)(F)C2)c2ccccc2Cl)c1
Ans. active

Qu. Repeat with Nc1ncn([C@@H]2O[C@H](CO)[C@@H](O)[C@@H]2O)c(=O)n1
Ans. active

Qu. Repeat with COc1cc2nccc(Oc3ccc(NC(=O)Nc4ccc(F)cc4F)c(F)c3)c2cc1OC
Ans. active

Qu. Repeat with CN(C)CCc1c[nH]c2ccc(C[C@H]3COC(=O)N3)cc12
Ans. active

Qu. Repeat with Oc1ccc(C2CNCCc3c2cc(O)c(O)c3Cl)cc1 (stereo unspecified)
Ans. inactive

Qu. Repeat with CO[C@@H]1[C@@H](OC(N)=O)[C@@H](O)[C@H](Oc2ccc3c(O)c(NC(=O)c4ccc(O)c(CC=C(C)C)c4)c(=O)oc3c2C)OC1(C)C
Ans. inactive

Qu. Repeat with COc1ccc(CCC(=O)c2c(O)cc(O[C@@H]3O[C@H](CO)[C@@H](O)[C@H](O)[C@@H]3O[C@@H]3O[C@@H](C)[C@H](O)[C@@H](O)[C@@H]3O)cc2O)cc1O
Ans. inactive

Qu. Repeat with N#Cc1cc(NC(=O)Nc2nnc(-c3ccncc3)s2)ccc1-c1cn[nH]c1
Ans. inactive

Qu. Repeat with Cc1nnc(NS(=O)(=O)c2ccc(N)cc2)s1
Ans. active
